assay-info: Tmax was determined
Format: ADME, organism-based
reported-conditions: rat, in vivo
property-name: Tmax

For CCCN1C(=O)[C@H](NC(=O)Nc2cccc(C)c2)N=C(N2CCN(C)CC2)c2ccccc21 , what is its reported Tmax?
5 min

###

measured-target: Cholecystokinin receptor type A (Rattus norvegicus) (UniProt P30551)
Sequence (P30551 whole entry): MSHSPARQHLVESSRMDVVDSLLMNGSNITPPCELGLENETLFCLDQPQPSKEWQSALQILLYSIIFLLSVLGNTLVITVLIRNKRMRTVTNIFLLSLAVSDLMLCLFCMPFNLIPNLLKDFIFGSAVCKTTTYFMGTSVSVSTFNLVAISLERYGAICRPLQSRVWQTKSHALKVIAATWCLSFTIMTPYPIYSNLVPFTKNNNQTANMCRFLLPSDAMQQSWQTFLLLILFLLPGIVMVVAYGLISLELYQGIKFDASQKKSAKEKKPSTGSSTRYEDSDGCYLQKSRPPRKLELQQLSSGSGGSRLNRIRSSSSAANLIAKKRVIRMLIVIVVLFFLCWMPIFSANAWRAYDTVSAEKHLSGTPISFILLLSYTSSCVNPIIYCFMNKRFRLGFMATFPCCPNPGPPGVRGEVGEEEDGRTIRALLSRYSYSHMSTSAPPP
assay-info: Compound was tested for its binding affinity by measuring the displacement of [125I]-BH CCK-8S from CCKA receptor in rat pancreas at a concentration of 3000 nM
Returns one of Criterion met or Criterion not met; Criterion met when inhibition is >= 10%.

Cc1cccc(NC(=O)NC2N=C(N3CCNCC3)c3ccccc3N(C)C2=O)c1 (stereo not given)	Criterion not met
CCCN1C(=O)C(NC(=O)Nc2cccc(CC)c2)N=C(N2CCN(C)CC2)c2ccccc21 (stereo not given)	Criterion met
CCCN1C(=O)C(NC(=O)Nc2cccc(OC)c2)N=C(N2CCN(C)CC2)c2ccccc21 (stereo not given)	Criterion met
CCCN1C(=O)[C@H](NC(=O)Nc2cccc(C)c2)N=C(N2CCN(C)CC2)c2ccccc21	Criterion met

Okay, now this compound:
Tell me whether inhibition is at least 10% here: Cc1cccc(NC(=O)NC2N=C(N3CCN(C(=O)OC(C)(C)C)CC3)c3ccccc3N(C)C2=O)c1 (stereo not given)
Criterion not met
